# Measured On: Large T antigen (Simian virus 40)
# Assay Overview: SV40 large T antigen inhibitors, biochemical (AID 1903)
# Condition Parameters: SV40 large T antigen ATPase/helicase inhibition assay; at 20 µM; hits give high values
The campaign covered roughly 310,000 compounds. About 1,200 (0.39%) were called active. The list is a sample of the results. Potency and affinity values are given separately.
The entries below come with measured inhibition values attached.

                                   molecule  experimental_value
0  CCn1cc(C(=O)N2CCN(c3ccccc3)CC2)c(=O)c2cc(S(=O)(=O)N3CCOCC3)ccc21    4.92% (inactive)

Find the measured inhibition of COc1cccc(NC(=O)Cn2cnc3c(oc4nc5c(cc43)CCCC5)c2=O)c1 and report it. 4.45% (inactive)

Find the measured inhibition of COc1ccc(N=C2SCC(=O)N2c2ccc(OC)cc2)cc1 and report it. 13.7% (inactive)

Find the measured inhibition of C=CCN1C(=O)CSC1=Nc1ccc(O)cc1 and report it. 27.9% (inactive)

Find the measured inhibition of Cc1nc(C)c(-c2csc(Nc3ccc(F)cc3)n2)s1 and report it. 6.12% (inactive)

Find the measured inhibition of CC(C)CNC(=O)NC1(C(F)(F)F)Oc2ccccc2O1 and report it. 3.66% (inactive)

Find the measured inhibition of CC1=NOC(=O)/C1=C\c1ccc(-c2cccc(Cl)c2)o1 and report it. 2.49% (inactive)
